- experiment.summary: Change in body weight of L1210-bearing mice, oral administration
- Format: in vivo, BDF1 mice
- condition.label: dose 30 mg/kg/day, days 1-4
- Experimental: The respective agents were administered orally three times, i.e. on the first day, third day, and fifth day, starting 24 hours after the implantation of tumor cells.
experimental.endpoint: Change in body weight (1-4 d, g/mouse)

Look over these answered cases.
- molecule: "CCCCCCCCCCCC(=O)OC[C@H]1O[C@@H](n2cc(F)c(=O)[nH]c2=O)C[C@@H]1OC(=O)CCCCCCCCCCC"
  Change in body weight (1-4 d, g/mouse): "+1.0 g/mouse"
- molecule: "CCCCCCCC(=O)OC[C@H]1O[C@@H](n2cc(F)c(=O)[nH]c2=O)C[C@@H]1OC(=O)CCCCCCC [reference compound]"
  Change in body weight (1-4 d, g/mouse): "+1.6 g/mouse"
- molecule: "CCCCCCCCCCCCCC(=O)OC[C@H]1O[C@@H](n2cc(F)c(=O)[nH]c2=O)C[C@@H]1OC(=O)CCCCCCCCCCCCC"
  Change in body weight (1-4 d, g/mouse): "-1.4 g/mouse"
- molecule: "O=c1[nH]c(=O)n([C@H]2C[C@H](O)[C@@H](CO)O2)cc1F"
  Change in body weight (1-4 d, g/mouse): "+1.8 g/mouse"

The record that follows has no Change in body weight (1-4 d, g/mouse) shown yet.
query: Give the reported value of Change in body weight (1-4 d, g/mouse) for this record: CCCCCCCCCC(=O)OC[C@H]1O[C@@H](n2cc(F)c(=O)[nH]c2=O)C[C@@H]1OC(=O)CCCCCCCCC
result: -1.4 g/mouse
